Values were extracted from patent US9073905B2.

# Tested on: MLC-T18/S19 phosphorylation
# assay-remarks: Myosin light chain phosphorylation assay (ELISA) in A7r5 cells
# Format: cell-based, Rat
# setup-conditions: Rattus norvegicus; MLC-T18/S19 phosphorylation, A7r5 cells, serum-free medium
# Description: Rat smooth muscle cell line A7r5 is used. The endogenous expression of ROCK esults in a constitutive phosphorylation of the regulatory myosin light chain at T18/S19. […] Quantification of MLC-T18/S19 phosphorylation is assesses in 96 well-plates via ELISA using a phspho-MLC-T18/S19 specific antibody and a secondary detection antibody. […] EC50 values were determined using GraphPad Prism 5.01 software using a nonlinear regression curve fit with variable hill slope. […]
EC50 values, listed per item

# molecule, tested-target, EC50
rows = [
    ("O=C(OCC1CC1)c1cccc(CN2CCCC(Nc3ccc4[nH]ncc4c3)C2)c1 (stereo not shown)", "MLC-T18/S19 phosphorylation", "300 to 1000 nM"),
    ("O=C(NCCSC1CCOC1=O)c1cccc(CN2CCCC(Nc3ccc4[nH]ncc4c3)C2)c1 (stereo not shown)", "MLC-T18/S19 phosphorylation", "300 to 1000 nM"),
    ("O=C(NCCSC1CCOC1=O)c1cccc(CN2CCCC(Nc3cccc4cnccc34)C2)c1 (stereo not shown)", "MLC-T18/S19 phosphorylation", "300 to 1000 nM"),
    ("COC(=O)c1cccc(NC(=O)c2cccc(CN3CCC(Nc4cccc5cnccc45)C3)c2)c1 (stereo not shown)", "MLC-T18/S19 phosphorylation", "< 300 nM"),
]

---

# assay-remarks: Stability towards drug metabolizing enzymes in lung S9
# Type: in vitro ADME, human
# setup-conditions: human, lung S9 (from smokers); comparison table; read-out: t½ lung S9
Item-by-item account of half-life at 1 μM

# molecule, half-life at 1 μM
measured = [
    ("CCOC(=O)COc1cccc(CN2CCCC(Nc3ccc4[nH]ncc4c3)C2)c1 (racemic) [Compound 1.060, reference compound]", "< 5 min"),
    ("O=C(OCC1CCCO1)c1cccc(CN2CCCC(Nc3ccc4[nH]ncc4c3)C2)c1 (stereo not drawn)", "9 min"),
    ("CS(=O)(=O)Nc1cccc(CN2CCCC(Nc3ccc4[nH]ncc4c3)C2)c1 (stereo not drawn) [Compound 1.091, reference compound]", "> 240 min"),
]
